- TARGET_OR_SYSTEM: T1, LexA (DinR) wild type (Bacillus subtilis, UniProt P31080 1-205)
- T1 sequence: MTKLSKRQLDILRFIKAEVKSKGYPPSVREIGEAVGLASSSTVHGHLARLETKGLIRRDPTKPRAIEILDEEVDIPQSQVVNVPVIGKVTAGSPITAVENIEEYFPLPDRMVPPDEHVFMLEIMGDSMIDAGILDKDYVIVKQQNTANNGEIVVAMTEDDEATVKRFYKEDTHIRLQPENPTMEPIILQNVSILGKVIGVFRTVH
- EXPERIMENTAL_PROTOCOL: competition EMSA
MEASURED_METRIC: pKi
When answering, recall that pKi equals minus log10 of the concentration in mol/L, and write that number alone.

Return reported pKi; argument: recA op C1A (dsDNA) DNA 1: GGGGGGAGAATATGCGTTCGCCCCCC DNA 2: GGGGGGCGAACGCATATTCTCCCCCC
7.94
